- tested on: Glucocorticoid receptor (Homo sapiens, UniProt P04150)
- Sequence (P04150 whole entry): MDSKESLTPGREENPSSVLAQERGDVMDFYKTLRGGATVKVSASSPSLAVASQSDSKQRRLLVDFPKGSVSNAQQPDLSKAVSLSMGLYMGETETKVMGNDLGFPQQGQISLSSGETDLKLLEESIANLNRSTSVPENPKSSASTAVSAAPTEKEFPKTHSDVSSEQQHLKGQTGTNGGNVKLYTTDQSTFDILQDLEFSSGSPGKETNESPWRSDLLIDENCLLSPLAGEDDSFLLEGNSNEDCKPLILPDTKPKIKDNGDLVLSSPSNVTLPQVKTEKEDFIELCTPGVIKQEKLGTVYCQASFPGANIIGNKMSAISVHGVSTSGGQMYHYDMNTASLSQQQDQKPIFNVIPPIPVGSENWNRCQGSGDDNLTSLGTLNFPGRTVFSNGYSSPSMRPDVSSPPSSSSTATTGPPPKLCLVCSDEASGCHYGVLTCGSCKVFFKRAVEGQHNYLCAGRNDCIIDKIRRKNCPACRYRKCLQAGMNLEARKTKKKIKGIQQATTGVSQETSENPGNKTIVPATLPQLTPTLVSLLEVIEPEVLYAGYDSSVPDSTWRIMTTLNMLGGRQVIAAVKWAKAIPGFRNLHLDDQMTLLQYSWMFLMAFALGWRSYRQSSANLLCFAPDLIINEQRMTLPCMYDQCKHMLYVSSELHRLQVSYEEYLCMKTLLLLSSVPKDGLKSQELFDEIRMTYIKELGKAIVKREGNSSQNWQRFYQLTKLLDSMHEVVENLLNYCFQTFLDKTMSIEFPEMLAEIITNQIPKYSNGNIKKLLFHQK
- run description: Displacement of FITC-dexamethasone from human recombinant glucocorticoid receptor alpha by fluorescence polarization assay
pKi: −log10 of the molar value.
Cut-off 7 on pKi, inclusive. At or above means t; below means f.

Solved cases below.
Q. Dear colleague, could you confirm whether Cc1cnc(NC(=O)C2(C)CC3c4ccccc4C2c2ccccc23)s1 (single isomer, unassigned; isomer B) has pKi at or above 7?
A. f

Q. Dear colleague, could you confirm whether O=C(Nc1nccs1)C1(CCO)CC2c3ccccc3C1c1ccccc12 (stereo not given) has pKi at or above 7?
A. f

Q. Dear colleague, could you confirm whether CC12CC(C)(C(=O)Nc3nccs3)C(c3ccccc31)c1ccccc12 (stereo in doubt; 17a) has pKi at or above 7?
A. t

Further cases:
Q. Dear colleague, could you confirm whether CC1(C(=O)Nc2nncs2)CC2c3ccccc3C1c1ccccc12 (stereo not given) has pKi at or above 7?
A. t

Q. Dear colleague, could you confirm whether CCC1(C(=O)Nc2nccs2)CC2c3ccccc3C1c1ccccc12 (stereo not given) has pKi at or above 7?
A. t
